- ASSAY_NOTES: AUC (0 to infinity) in monkey at 5 mg/kg, po administered with 0.4% HPMC
- CONDITION_DESCRIPTION: rhesus monkey, plasma
OBSERVED_PROPERTY: AUC(0-inf) (µM·h)
Entry rule: numbers only, all in µM·h.

Query :: Item under review: CS(=O)(=O)CC[C@@H]1OCC[C@@]2(S(=O)(=O)c3ccc(Cl)cc3)c3c(F)ccc(F)c3OC[C@@H]12 . Reported AUC(0-inf)?
Result :: 8.9

---

- ASSAY_SYSTEM: Presenilin-2 (Homo sapiens)
- Sequence (P49810 1-297 limits assumed): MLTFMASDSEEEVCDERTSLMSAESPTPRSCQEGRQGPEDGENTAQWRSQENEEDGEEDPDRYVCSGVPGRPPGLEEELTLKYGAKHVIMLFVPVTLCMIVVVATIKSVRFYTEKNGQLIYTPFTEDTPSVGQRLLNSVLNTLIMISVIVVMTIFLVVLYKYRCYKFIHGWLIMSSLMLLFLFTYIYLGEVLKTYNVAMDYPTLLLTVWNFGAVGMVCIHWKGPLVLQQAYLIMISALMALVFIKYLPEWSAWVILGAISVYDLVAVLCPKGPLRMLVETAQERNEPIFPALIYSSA
- Sequence (P49810 298-448 limits assumed): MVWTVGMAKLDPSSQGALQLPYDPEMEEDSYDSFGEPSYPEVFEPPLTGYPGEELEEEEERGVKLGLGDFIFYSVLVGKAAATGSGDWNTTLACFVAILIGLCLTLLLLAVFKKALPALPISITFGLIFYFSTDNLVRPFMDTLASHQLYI
- ASSAY_NOTES: Inhibition of PS2 gamma-secretase expressed in HEK cells harboring Awe-Lon gene assessed as reduction of amyloid beta-42 production
pIC50: −log10 of the molar value.
Classify by measured pIC50: true (1) if it is equal to or exceeds 8, false (0) if it is smaller.

Query :: Please tell me: is the compound CCNC(=O)OCC[C@@H]1OCC[C@@]2(S(=O)(=O)c3ccc(Cl)cc3)c3c(F)ccc(F)c3OC[C@@H]12 (racemic) at or over 8 in terms of pIC50?
Result :: false (0)

Query :: Form field: pIC50 at least 8? Entry: CC(C)S(=O)(=O)CC[C@@H]1OCC[C@@]2(S(=O)(=O)c3ccc(Cl)cc3)c3c(F)ccc(F)c3OC[C@@H]12
Result :: true (1)

Query :: Could you tell me if the measured pIC50 of CCS(=O)(=O)CC[C@@H]1OCC[C@@]2(S(=O)(=O)c3ccc(Cl)cc3)c3c(F)ccc(F)c3OC[C@@H]12 reaches 8 or more?
Result :: true (1)

Query :: For this compound, is measured pIC50 8 or higher? CS(=O)(=O)CC[C@@H]1OCC[C@@]2(S(=O)(=O)c3ccc(Cl)cc3)c3c(F)ccc(F)c3OC[C@@H]12
Result :: true (1)

---

- ASSAY_SYSTEM: Presenilin-1 (Homo sapiens)
- ASSAY_NOTES: Inhibition of PS1 gamma-secretase expressed in HEK cells harboring Awe-Lon gene assessed as notch cleavage
- Assay type: cell-based, HEK293
OBSERVED_PROPERTY: IC50 (nM)
Report as a plain number; the unit nM is understood.

Query :: Fill in: IC50 of CS(=O)(=O)CC[C@@H]1OCC[C@@]2(S(=O)(=O)c3ccc(Cl)cc3)c3c(F)ccc(F)c3OC[C@@H]12 is ___
Result :: 46

---

- ASSAY_NOTES: Tmax in rat at 10 mg/kg, po administered with 0.4% HPMC
- Type: ADME, organism-based
- Parameters: dose 10 mg/kg, route oral
- CONDITION_DESCRIPTION: in vivo
OBSERVED_PROPERTY: Tmax (min)
Just the number in min, nothing appended.

Query :: Returns the measured Tmax for the input molecule. Input: CS(=O)(=O)CC[C@@H]1OCC[C@@]2(S(=O)(=O)c3ccc(Cl)cc3)c3c(F)ccc(F)c3OC[C@@H]12
Result :: 18

---

- ASSAY_NOTES: Clearance in monkey at 2.5 mg/kg, iv administered with 0.4% HPMC
- Type: ADME, organism-based, Macaca mulatta
- Set-up: dose 2.5 mg/kg, route intravenous
- CONDITION_DESCRIPTION: rhesus monkey, in vivo
OBSERVED_PROPERTY: clearance (mL/min/kg)
The reply should contain only the number, in mL/min/kg.

Query :: I am curious: what clearance value has been reported for CS(=O)(=O)CC[C@@H]1OCC[C@@]2(S(=O)(=O)c3ccc(Cl)cc3)c3c(F)ccc(F)c3OC[C@@H]12 ?
Result :: 8.2
